- targetEntity: DAT (Rattus norvegicus (Rat), UniProt P23977)
- Sequence (P23977 whole entry): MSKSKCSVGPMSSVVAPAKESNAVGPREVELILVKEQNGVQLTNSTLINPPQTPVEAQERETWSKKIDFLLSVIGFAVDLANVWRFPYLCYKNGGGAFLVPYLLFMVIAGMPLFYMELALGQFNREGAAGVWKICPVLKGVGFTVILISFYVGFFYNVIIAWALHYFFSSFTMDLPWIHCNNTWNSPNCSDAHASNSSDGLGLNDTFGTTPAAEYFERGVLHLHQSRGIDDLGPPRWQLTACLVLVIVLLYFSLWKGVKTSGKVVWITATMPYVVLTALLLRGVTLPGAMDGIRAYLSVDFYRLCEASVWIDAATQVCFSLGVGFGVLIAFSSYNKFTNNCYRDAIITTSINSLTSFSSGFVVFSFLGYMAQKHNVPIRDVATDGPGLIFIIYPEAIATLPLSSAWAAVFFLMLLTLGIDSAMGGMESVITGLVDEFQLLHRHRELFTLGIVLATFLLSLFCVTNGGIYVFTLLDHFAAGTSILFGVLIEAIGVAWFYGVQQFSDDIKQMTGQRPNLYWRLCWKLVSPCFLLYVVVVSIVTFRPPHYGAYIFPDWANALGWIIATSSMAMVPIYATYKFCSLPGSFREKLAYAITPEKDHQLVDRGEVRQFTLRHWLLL
- experimentalProtocol: Inhibition of [3H]WIN35428 binding to rat caudate DAT
- measurementConditions: [3H]WIN35428; mean ± S.D.; n = 3
resultType: DAT Binding Emax

INSERT INTO assay_data (compound, result) VALUES
  ('Cl.Fc1ccc2c(NCC(c3ccccc3)c3ccccc3)nc(-c3ccc4nccn4c3)nc2c1', 'Inactive'),
  ('c1ccc(C(CNc2nc(-c3ccc4nccn4c3)nc3ccccc23)c2ccccc2)cc1', 'Inactive'),
  ('c1ccc(C(CNc2nc(-c3ccc4ncnn4c3)nc3ccccc23)c2ccccc2)cc1', 'Inactive'),
  ('CS(=O)(=O)Nc1ccc(-c2nc(NCC(c3ccccc3)c3ccncc3)c3ccccc3n2)cc1 (stereo not shown)', '52 ± 6%');
